- assay.system: T1, CHO-hu α11 (Homo sapiens, UniProt Q9UKX5)
- T1 construct: expressed in transfected cells; host or cells: CHO-K1
- T1 sequence (Q9UKX5 23-1188): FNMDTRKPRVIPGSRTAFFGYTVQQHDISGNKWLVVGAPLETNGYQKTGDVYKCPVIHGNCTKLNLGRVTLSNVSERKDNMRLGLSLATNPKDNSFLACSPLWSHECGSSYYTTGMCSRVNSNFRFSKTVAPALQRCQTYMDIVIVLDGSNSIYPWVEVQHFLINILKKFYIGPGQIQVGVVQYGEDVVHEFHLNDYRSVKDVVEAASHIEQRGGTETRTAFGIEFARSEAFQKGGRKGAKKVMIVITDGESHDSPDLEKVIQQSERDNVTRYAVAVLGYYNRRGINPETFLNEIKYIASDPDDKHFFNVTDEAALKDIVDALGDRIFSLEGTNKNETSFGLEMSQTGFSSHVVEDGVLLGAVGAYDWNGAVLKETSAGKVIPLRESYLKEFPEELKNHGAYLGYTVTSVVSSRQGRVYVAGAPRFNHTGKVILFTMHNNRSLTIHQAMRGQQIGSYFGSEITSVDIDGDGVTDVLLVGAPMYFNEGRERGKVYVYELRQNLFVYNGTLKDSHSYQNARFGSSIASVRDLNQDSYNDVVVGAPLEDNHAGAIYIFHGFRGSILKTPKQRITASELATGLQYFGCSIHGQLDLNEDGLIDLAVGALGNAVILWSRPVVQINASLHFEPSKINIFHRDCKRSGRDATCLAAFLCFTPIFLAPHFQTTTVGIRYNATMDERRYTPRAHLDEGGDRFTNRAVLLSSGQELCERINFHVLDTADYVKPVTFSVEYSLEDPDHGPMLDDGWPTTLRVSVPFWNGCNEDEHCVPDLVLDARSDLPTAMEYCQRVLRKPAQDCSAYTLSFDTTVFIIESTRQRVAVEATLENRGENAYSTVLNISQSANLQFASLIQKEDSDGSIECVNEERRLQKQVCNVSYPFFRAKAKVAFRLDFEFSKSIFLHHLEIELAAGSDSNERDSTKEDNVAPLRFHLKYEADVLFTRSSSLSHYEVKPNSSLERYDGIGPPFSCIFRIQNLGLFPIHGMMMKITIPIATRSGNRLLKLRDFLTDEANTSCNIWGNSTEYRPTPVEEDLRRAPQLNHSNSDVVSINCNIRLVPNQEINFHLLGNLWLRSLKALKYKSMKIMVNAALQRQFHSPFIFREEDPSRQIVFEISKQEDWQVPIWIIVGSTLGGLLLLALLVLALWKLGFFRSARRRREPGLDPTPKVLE
- T1 sequence (P05556 21-798 partner): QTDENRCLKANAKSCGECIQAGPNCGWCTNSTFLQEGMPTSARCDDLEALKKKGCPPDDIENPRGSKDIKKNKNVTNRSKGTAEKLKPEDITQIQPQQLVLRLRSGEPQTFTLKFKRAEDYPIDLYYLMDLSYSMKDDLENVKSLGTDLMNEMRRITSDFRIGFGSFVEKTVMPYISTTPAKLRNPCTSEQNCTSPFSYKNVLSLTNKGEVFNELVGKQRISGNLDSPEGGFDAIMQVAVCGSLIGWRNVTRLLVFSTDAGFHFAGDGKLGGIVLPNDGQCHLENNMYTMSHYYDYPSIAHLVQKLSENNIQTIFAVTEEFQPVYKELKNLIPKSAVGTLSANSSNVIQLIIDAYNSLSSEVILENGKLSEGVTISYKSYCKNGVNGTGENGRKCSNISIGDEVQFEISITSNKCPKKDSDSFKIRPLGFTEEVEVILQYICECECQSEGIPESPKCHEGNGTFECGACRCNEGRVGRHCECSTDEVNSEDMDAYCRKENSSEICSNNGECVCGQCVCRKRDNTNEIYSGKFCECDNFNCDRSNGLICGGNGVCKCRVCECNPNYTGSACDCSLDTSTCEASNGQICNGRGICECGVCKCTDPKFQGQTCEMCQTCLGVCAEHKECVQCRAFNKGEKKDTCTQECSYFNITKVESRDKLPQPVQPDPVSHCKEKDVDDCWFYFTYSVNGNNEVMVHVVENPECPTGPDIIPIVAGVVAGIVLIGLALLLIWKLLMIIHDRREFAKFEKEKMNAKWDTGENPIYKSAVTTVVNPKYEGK
- assay: FACS antibody binding to CHO-K1 cells expressing human α11
- condition.description: Table 13, 79E3E3 variants
pEC50: −log10 of the molar value.

molecule	pEC50
A11BB141: 79E3E3 variant; VH SEQ ID NO: 7, VL SEQ ID NO: 19 (antibody, V domains shown) VH: QIQLVQSGAEVKKPGSSVKVSCKASGYTFTDYAMNWVRQAPGQGLEWMGWINTQTGKPTYAQKFQGRVTFTLDESTSTTYMELSSLRSEDTAVYYCTRLGTGNTKGFAYWGQGTLVTVSS VL: DIQITQSPSSLSASVGDRVTITCKSSQSLLYSENNQDYLAWYQQKPGKVPKLLIYGASNRHTGVPSRFSGSGSGTDFTLTISSLQPEDVATYYCEQTYRYPFTFGQGTKLEIK	8.34
A11BB138: 79E3E3 variant; VH SEQ ID NO: 12, VL SEQ ID NO: 21 (antibody, V domains shown) VH: QIQLVQSGSELKKPGASVKISCKASGYTFTDYAMNWVRQAPGQGLEWMGWINTQTGKPTYAQGFTGRFVFSLDTSVSTAYLQISSLKAEDTAVYFCTRLGTGNTKGFAYWGQGTLVTVSS VL: DIQITQSPSSLSASVGDRVTITCKSSQSLLYSENNQDYLAWYQQKPGKVPKLLIYGASNRHTGVPSRFSGSGSGTDFTLTISSLQPEDVATYYCEQTYRYPFTFGQGTKLEIK	8.33
A11BB136: 79E3E3 variant; VH SEQ ID NO: 14, VL SEQ ID NO: 22 (antibody, V domains shown) VH: QIQLVQSGSELKKPGASVKVSCKASGYTFTDYAMNWVRQAPGQGLEWMGWINTQTGKPTYAQGFTGRFVFSLDTSVSTAYLQISSLKAEDTAVYFCTRLGTGNTKGFAYWGQGTLVTVSS VL: DIQMTQSPSSLSASVGDRVTITCKSSQSLLYSENNQDYLAWYQQKPGKVPKLLIYGASNRHTGVPSRFSGSGSGTDFTLTISSLQPEDVATYYCEQTYRYPFTFGQGTKLEIK	8.72
